# target-system: unphosphorylated-BTK kinase domain (UP-BTK), GST-tagged human BTK (389-659aa) (Homo sapiens (Human), UniProt Q06187)
# Sequence (Q06187 389-659): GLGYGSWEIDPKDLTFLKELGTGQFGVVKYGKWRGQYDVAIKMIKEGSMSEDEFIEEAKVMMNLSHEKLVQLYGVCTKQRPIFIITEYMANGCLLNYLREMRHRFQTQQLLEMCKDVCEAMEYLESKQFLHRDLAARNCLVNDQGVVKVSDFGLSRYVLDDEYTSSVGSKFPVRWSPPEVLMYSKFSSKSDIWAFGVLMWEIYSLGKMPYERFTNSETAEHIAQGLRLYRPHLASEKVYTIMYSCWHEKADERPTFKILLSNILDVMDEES
# measurement-protocol: BTK kinase Lanthascreen binding assay
# experimental-context: Lanthascreen tracer competition, 60 minutes incubation; pIC50 = negative log of the IC50 in molar
parameter: BTK_I_binding pIC50

[
  {
    "compound": "Cc1cc(Oc2ccccc2)ccc1N1C(=O)Nc2c(C(=O)N[C@@H]3CCN(C(=O)CC#N)C3)sc3nccc1c23",
    "BTK_I_binding pIC50": 7.9
  },
  {
    "compound": "C=CC(=O)N1CCC[C@@H](NC(=O)c2sc3nccc4c3c2NC(=O)N4c2cnc(OC3CCCC3)cc2C)C1 (single isomer, unassigned) [Example 768]",
    "BTK_I_binding pIC50": 8.2
  },
  {
    "compound": "CC(C)Oc1cccc(N2C(=O)Nc3c(C(=O)N[C@@H]4CCCNC4)sc4nccc2c34)c1",
    "BTK_I_binding pIC50": 5.7
  },
  {
    "compound": "Cc1cc(Oc2ccccc2)ccc1N1C(=O)Nc2c(C(=O)N[C@@H]3CCCN(C(=O)/C=C/CN4CCCC4)C3)sc3nccc1c23 (single isomer, unassigned) [Example 845]",
    "BTK_I_binding pIC50": 7.6
  },
  {
    "compound": "Cc1ccccc1N1C(=O)Nc2c(C(=O)N[C@@H]3CCCN(C(=O)/C(C#N)=C/C4CC4)C3)sc3nccc1c23",
    "BTK_I_binding pIC50": 7.5
  },
  {
    "compound": "Cc1cc(Oc2ccccc2)ccc1N1C(=O)Nc2c(C(=O)NC3CCNCC3)sc3nccc1c23",
    "BTK_I_binding pIC50": 7.3
  }
]

====

# target-system: unphosphorylated-BTK kinase domain (UP-BTK), GST-tagged human BTK (389-659aa) (Homo sapiens (Human))
# measurement-protocol: BTK kinase Lanthascreen binding assay
# experimental-context: pIC50 = negative log of the IC50 in molar; 60 minutes incubation, 50 nM Tracer 236
parameter: BTK_I_binding pIC50

[
  {
    "molecule": "Cc1cc(Oc2ccccc2)ccc1N1C(=O)Nc2c(C(=O)N[C@@H]3CCCN(C(=O)/C(C#N)=C/C4(C)COC4)C3)sc3nccc1c23 [Example 21]",
    "endpoint-result": 7.7
  },
  {
    "molecule": "C=CC(=O)N1CCC[C@@H](NC(=O)c2sc3nccc4c3c2NC(=O)N4c2c(C)cc(Oc3ccccc3)cc2F)C1 [Example 20]",
    "endpoint-result": 7.4
  },
  {
    "molecule": "Cc1cc(Oc2ccccc2)ccc1N1C(=O)Nc2c(C(=O)N[C@@H]3CCCN(C(C)C)C3)sc3nccc1c23 [Example 101]",
    "endpoint-result": 6.8
  },
  {
    "molecule": "C=CC(=O)N1CCC[C@@H](NC(=O)c2sc3nccc4c3c2NC(=O)N4c2ccc(Oc3ccccc3)nn2)C1 [Example 121]",
    "endpoint-result": 6.7
  },
  {
    "molecule": "C=CC(=O)N1CC[C@@H](NC(=O)c2sc3nccc4c3c2NC(=O)N4c2ccc(Oc3c(F)cccc3F)cc2C)C1 [Example 17]",
    "endpoint-result": 7.7
  },
  {
    "molecule": "COCC(=O)N1CCC[C@@H](NC(=O)c2sc3nccc4c3c2NC(=O)N4c2ccc(Oc3ccccc3)c(F)c2C)C1 [Example 115]",
    "endpoint-result": 7.4
  },
  {
    "molecule": "COC[C@@H](O)C(=O)N1CCC[C@@H](NC(=O)c2sc3nccc4c3c2NC(=O)N4c2ccc(Oc3ccccc3)cc2C)C1 [Example 143]",
    "endpoint-result": 7.3
  },
  {
    "molecule": "N#CCC(=O)N1CCC[C@@H](NC(=O)c2sc3nccc4c3c2NC(=O)N4c2ccc(Oc3ccccc3)cc2)C1 [Example 181]",
    "endpoint-result": 7.1
  },
  {
    "molecule": "Cc1cc(Oc2ccccc2)ccc1N1C(=O)Nc2c(C(=O)N[C@@H]3CCOC3)sc3nccc1c23 [Example 108]",
    "endpoint-result": 7.5
  },
  {
    "molecule": "C=C(F)C(=O)N1CCC[C@@H](NC(=O)c2sc3nccc4c3c2NC(=O)N4c2ccc(Oc3ccccc3)cc2C)C1 (single isomer, unassigned) [Example 49]",
    "endpoint-result": 7.2
  },
  {
    "molecule": "Cc1cc(Oc2ccccc2)ccc1N1C(=O)Nc2c(C(=O)N[C@@H]3CCCN(C(=O)CO)C3)sc3nccc1c23 [Example 124]",
    "endpoint-result": 7.4
  },
  {
    "molecule": "Cc1cc(Oc2cccc(COc3ccccc3C#N)c2)ccc1N1C(=O)Nc2c(C(=O)N[C@@H]3CCCN(C)C3)sc3nccc1c23 (mixture of isomers) [Example 24]",
    "endpoint-result": 7.7
  },
  {
    "molecule": "Cc1cc(Oc2ccccc2)ccc1N1C(=O)Nc2c(C(=O)NCCN3CCNC3=O)sc3nccc1c23 [Example 217]",
    "endpoint-result": 6.5
  }
]

====

# target-system: unphosphorylated-BTK kinase domain (UP-BTK), GST-tagged human BTK (389-659aa) (Homo sapiens (Human))
# measurement-protocol: BTK kinase Lanthascreen binding assay
# experimental-context: pIC50 = negative log of the IC50 in molar; 60 minutes incubation, 50 nM Tracer 236
parameter: BTK_I_binding pIC50

[
  {
    "smi": "Cc1cc(Oc2ccccc2)ccc1N1C(=O)Nc2c(C(=O)N[C@@H]3CCN(C4CC4)C3)sc3nccc1c23",
    "endpoint-result": 6.8
  },
  {
    "smi": "Cc1cc(Oc2ccccc2)ccc1N1C(=O)Nc2c(C(=O)N[C@H]3CN(C)C[C@@H]3O)sc3nccc1c23",
    "endpoint-result": 6.6
  },
  {
    "smi": "C=CC(=O)N1CCC[C@@H](NC(=O)c2sc3nccc4c3c2NC(=O)N4c2ccc(Oc3c(F)cccc3F)cc2C)C1",
    "endpoint-result": 7.6
  },
  {
    "smi": "CN1CCC[C@@H](NC(=O)c2sc3nccc4c3c2NC(=O)N4c2ccc(Oc3ccccc3)cc2Cl)C1",
    "endpoint-result": 7.0
  },
  {
    "smi": "C=CC(=O)N1C[C@@H](F)[C@@H](NC(=O)c2sc3nccc4c3c2NC(=O)N4c2ccc(Oc3ccccc3)cc2C)C1",
    "endpoint-result": 7.6
  },
  {
    "smi": "Cc1cc(Oc2ccccc2)ccc1N1C(=O)Nc2c(C(=O)N[C@@H]3CCCN(C(=O)/C=C/C(C)(C)C)C3)sc3nccc1c23",
    "endpoint-result": 6.3
  },
  {
    "smi": "CCN1CC[C@@H](NC(=O)c2sc3nccc4c3c2NC(=O)N4c2ccc(Oc3ccccc3)cc2C)C1",
    "endpoint-result": 6.8
  },
  {
    "smi": "Cc1cc(OC2CC2)ccc1N1C(=O)Nc2c(C(=O)N[C@@H]3CCCN(C(=O)/C(C#N)=C/C4CC4)C3)sc3nccc1c23",
    "endpoint-result": 7.5
  },
  {
    "smi": "COC[C@H](OC)C(=O)N1CCC[C@@H](NC(=O)c2sc3nccc4c3c2NC(=O)N4c2ccc(Oc3ccccc3)cc2C)C1",
    "endpoint-result": 7.2
  },
  {
    "smi": "N#C/C(=C\\C1CC1)C(=O)N1CCC[C@@H](NC(=O)c2sc3nccc4c3c2NC(=O)N4c2ccc(Oc3ccccc3)cc2F)C1",
    "endpoint-result": 7.5
  },
  {
    "smi": "Cc1cc(Oc2ccccc2)ccc1N1C(=O)Nc2c(C(=O)N[C@H]3CN(C)C[C@H]3F)sc3nccc1c23",
    "endpoint-result": 7.2
  },
  {
    "smi": "CN1CCC[C@@H](NC(=O)c2sc3nccc4c3c2NC(=O)N4c2ccc(Oc3ccccc3)cc2)C1",
    "endpoint-result": 6.7
  },
  {
    "smi": "Cc1cccc(Oc2ccc(N3C(=O)Nc4c(C(=O)N[C@@H]5CCCN(C)C5)sc5nccc3c45)c(C)c2)c1",
    "endpoint-result": 6.7
  },
  {
    "smi": "Cc1cc(Oc2ccccc2)ccc1N1C(=O)Nc2c(C(=O)N[C@H]3CN(C)CC(F)(F)C3)sc3nccc1c23",
    "endpoint-result": 6.3
  }
]

====

# target-system: unphosphorylated-BTK kinase domain (UP-BTK), GST-tagged human BTK (389-659aa) (Homo sapiens (Human), UniProt Q06187)
# measurement-protocol: BTK kinase Lanthascreen binding assay
# experimental-context: pIC50 = negative log of the IC50 in molar; 60 minutes incubation, 50 nM Tracer 236
parameter: BTK_I_binding pIC50

[
  {
    "molecule": "C=CC(=O)N1CCC[C@@H](NC(=O)c2sc3nccc4c3c2NC(=O)N4c2ccc(Cl)cc2)C1 [Example 256]",
    "BTK_I_binding pIC50": 6.6
  },
  {
    "molecule": "C=CC(=O)N1CC[C@@H](NC(=O)c2sc3nccc4c3c2NC(=O)N4c2ccc(OC3CCOCC3)cc2C)C1 [Example 270]",
    "BTK_I_binding pIC50": 6.3
  },
  {
    "molecule": "Cc1cc(OC(C)C)ccc1N1C(=O)Nc2c(C(=O)N[C@@H]3CCCN(C(=O)/C(C#N)=C/C4CC4)C3)sc3nccc1c23 [Example 102]",
    "BTK_I_binding pIC50": 7.5
  },
  {
    "molecule": "Cc1cc(OC2CCOCC2)ccc1N1C(=O)Nc2c(C(=O)N[C@@H]3CCCN(C(=O)/C(C#N)=C/C4CC4)C3)sc3nccc1c23 [Example 233]",
    "BTK_I_binding pIC50": 7.2
  },
  {
    "molecule": "COC[C@H](C)C(=O)N1CCC[C@@H](NC(=O)c2sc3nccc4c3c2NC(=O)N4c2ccc(Oc3ccccc3)cc2C)C1 [Example 156]",
    "BTK_I_binding pIC50": 7.1
  },
  {
    "molecule": "CNCC(=O)N1CCC[C@@H](NC(=O)c2sc3nccc4c3c2NC(=O)N4c2ccc(Oc3ccccc3)cc2C)C1 (single isomer, unassigned) [Example 253]",
    "BTK_I_binding pIC50": 6.2
  }
]
